Recorded diameter of the inhibition zone (DIZ) by entry
System: Candida albicans
Test: Antimicrobial activity against Candida albicans MTCC 183 assessed as diameter of growth inhibition zone after 48 hr; also: test concentration or dose not given here
Format: functional
experimental.readout: diameter of the inhibition zone (DIZ) (mm)

compound	experimental.readout	numeric.readout
N#Cc1c(-c2ccc(Cl)cc2)cc(-c2ccc(Nc3cc(=O)oc4ccccc34)cc2)nc1N	diameter of the inhibition zone (DIZ)	26
Nc1nc(-c2ccc(Nc3cc(=O)oc4ccccc34)cc2)cc(-c2ccc([N+](=O)[O-])cc2)n1	diameter of the inhibition zone (DIZ)	19
N#Cc1c(-c2ccc(F)cc2)cc(-c2ccc(Nc3cc(=O)oc4ccccc34)cc2)nc1N	diameter of the inhibition zone (DIZ)	22
CC(=O)N1N=C(c2ccc(Nc3cc(=O)oc4ccccc34)cc2)CC1c1ccc([N+](=O)[O-])cc1 (centres undefined)	diameter of the inhibition zone (DIZ)	15
COc1ccc(-c2cc(-c3ccc(Nc4cc(=O)oc5ccccc45)cc3)nc(N)c2C#N)cc1OC	diameter of the inhibition zone (DIZ)	27
N#Cc1c(-c2ccccc2Br)cc(-c2ccc(Nc3cc(=O)oc4ccccc34)cc2)nc1N	diameter of the inhibition zone (DIZ)	24
Nc1nc(-c2ccc(Cl)cc2)cc(-c2ccc(Nc3cc(=O)oc4ccccc34)cc2)n1	diameter of the inhibition zone (DIZ)	21
CC(=O)N1N=C(c2ccc(Nc3cc(=O)oc4ccccc34)cc2)CC1c1ccccc1O (centres undefined)	diameter of the inhibition zone (DIZ)	16
COc1ccc(/C=C/C(=O)c2ccc(Nc3cc(=O)oc4ccccc34)cc2)cc1OC	diameter of the inhibition zone (DIZ)	17

====

# key: entry, value: MIC
Test system: Candida albicans
Test: Antimicrobial activity against Candida albicans MTCC 183 assessed as growth inhibition after 48 hr by agar streak dilution method
Type: functional
Conditions: MTCC 183, 48 h
experimental.readout: MIC (µg/mL)

smi	u	numeric.readout
Nc1nc(-c2ccc(Nc3cc(=O)oc4ccccc34)cc2)cc(-c2ccccc2Br)n1	µg/mL	25
O=C(/C=C/c1ccc(Cl)cc1)c1ccc(Nc2cc(=O)oc3ccccc23)cc1	µg/mL	100
COc1ccc(/C=C/C(=O)c2ccc(Nc3cc(=O)oc4ccccc34)cc2)cc1OC	µg/mL	100
O=C(/C=C/c1ccccc1O)c1ccc(Nc2cc(=O)oc3ccccc23)cc1	µg/mL	100
Nc1nc(-c2ccc(Cl)cc2)cc(-c2ccc(Nc3cc(=O)oc4ccccc34)cc2)n1	µg/mL	12.5

====

Test system: Pseudomonas aeruginosa
Assay: Antimicrobial activity against Pseudomonas aeruginosa MTCC 741 assessed as growth inhibition after 24 hr by agar streak dilution method
Assay type: functional
Details: MTCC 741, 24 h
We begin with a simple list: items and their reported MIC.

smi	target.system	MIC / µg/mL
Nc1nc(-c2ccc(Nc3cc(=O)oc4ccccc34)cc2)cc(-c2ccc(O)cc2O)n1	Pseudomonas aeruginosa	12.5
Nc1nc(-c2ccc(Nc3cc(=O)oc4ccccc34)cc2)cc(-c2ccc(Cl)cc2Cl)n1	Pseudomonas aeruginosa	25
N#Cc1c(-c2ccc(Cl)cc2Cl)cc(-c2ccc(Nc3cc(=O)oc4ccccc34)cc2)nc1N	Pseudomonas aeruginosa	6.25
COc1ccc(/C=C/C(=O)c2ccc(Nc3cc(=O)oc4ccccc34)cc2)cc1	Pseudomonas aeruginosa	100
N#Cc1c(-c2ccccc2)cc(-c2ccc(Nc3cc(=O)oc4ccccc34)cc2)nc1N	Pseudomonas aeruginosa	50
